- SYSTEM_UNDER_TEST: PI3K α (Homo sapiens, UniProt P42336)
- Sequence (P42336 whole entry): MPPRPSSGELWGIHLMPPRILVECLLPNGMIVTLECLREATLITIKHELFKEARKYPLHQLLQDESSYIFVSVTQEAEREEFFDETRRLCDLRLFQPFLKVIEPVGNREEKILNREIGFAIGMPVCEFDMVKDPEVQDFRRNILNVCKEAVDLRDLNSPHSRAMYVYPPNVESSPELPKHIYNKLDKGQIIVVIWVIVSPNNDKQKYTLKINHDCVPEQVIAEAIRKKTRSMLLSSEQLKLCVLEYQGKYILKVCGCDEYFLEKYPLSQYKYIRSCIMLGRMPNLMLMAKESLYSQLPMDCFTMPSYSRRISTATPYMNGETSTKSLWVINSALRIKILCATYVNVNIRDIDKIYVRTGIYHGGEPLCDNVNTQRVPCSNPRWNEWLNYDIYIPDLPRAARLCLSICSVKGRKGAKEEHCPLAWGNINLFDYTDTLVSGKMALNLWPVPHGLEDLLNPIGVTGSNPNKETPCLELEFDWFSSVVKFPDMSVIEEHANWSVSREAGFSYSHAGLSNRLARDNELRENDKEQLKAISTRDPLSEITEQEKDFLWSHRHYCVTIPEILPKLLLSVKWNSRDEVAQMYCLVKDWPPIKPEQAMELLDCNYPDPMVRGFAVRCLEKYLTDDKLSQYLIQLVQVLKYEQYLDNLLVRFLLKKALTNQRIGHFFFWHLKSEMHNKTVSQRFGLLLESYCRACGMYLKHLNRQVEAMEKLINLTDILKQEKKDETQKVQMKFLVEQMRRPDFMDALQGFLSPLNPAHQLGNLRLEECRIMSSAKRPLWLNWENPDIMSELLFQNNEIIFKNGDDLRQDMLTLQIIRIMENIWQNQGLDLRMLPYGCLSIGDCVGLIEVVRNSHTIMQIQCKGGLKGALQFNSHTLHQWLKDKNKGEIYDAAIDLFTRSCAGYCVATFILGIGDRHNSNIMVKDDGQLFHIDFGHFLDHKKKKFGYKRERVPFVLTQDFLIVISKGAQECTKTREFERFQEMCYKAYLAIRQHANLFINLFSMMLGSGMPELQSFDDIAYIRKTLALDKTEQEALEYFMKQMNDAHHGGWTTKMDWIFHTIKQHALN
- Sequence (P27986 whole entry partner): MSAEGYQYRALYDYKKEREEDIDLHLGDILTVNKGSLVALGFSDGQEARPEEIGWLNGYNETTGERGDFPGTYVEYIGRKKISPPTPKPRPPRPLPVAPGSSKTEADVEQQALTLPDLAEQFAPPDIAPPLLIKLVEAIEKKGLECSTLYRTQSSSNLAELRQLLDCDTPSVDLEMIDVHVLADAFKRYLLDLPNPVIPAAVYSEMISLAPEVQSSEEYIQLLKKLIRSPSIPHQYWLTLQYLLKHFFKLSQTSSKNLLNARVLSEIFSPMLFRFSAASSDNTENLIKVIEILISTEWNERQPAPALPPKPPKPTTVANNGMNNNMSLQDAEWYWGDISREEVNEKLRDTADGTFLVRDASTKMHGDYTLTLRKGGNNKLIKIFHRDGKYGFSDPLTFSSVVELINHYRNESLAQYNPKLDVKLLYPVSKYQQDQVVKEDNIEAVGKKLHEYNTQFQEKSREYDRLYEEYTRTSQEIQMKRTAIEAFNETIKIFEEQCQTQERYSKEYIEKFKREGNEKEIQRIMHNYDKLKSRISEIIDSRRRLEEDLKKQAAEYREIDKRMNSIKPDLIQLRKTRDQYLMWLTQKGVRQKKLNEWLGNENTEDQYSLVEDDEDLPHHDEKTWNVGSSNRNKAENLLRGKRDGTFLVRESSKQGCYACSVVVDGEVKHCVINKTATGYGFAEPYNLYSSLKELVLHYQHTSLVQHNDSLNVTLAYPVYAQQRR
pIC50: −log10 of the molar value.
MEASUREMENT_NAME: pIC50

{"COMPOUND": "COC(=O)Nc1noc2cc(-c3nn(C(C)C)c4ncnc(N)c34)ccc12 [compound 20]", "pIC50": "> 5.00"}

// moving on: another record for pIC50
State the recorded pIC50 for this entry: COC(=O)Nc1noc2ccc(-c3nn(C(C)C)c4ncnc(N)c34)cc12 [compound 19]
< 5.00
